# TARGET OR TEST SYSTEM: SNARE complex (VAMP, syntaxin and SNAP-25 bound to GST) (UniProt P60880)
# Sequence (P60880 whole entry, one chain of several): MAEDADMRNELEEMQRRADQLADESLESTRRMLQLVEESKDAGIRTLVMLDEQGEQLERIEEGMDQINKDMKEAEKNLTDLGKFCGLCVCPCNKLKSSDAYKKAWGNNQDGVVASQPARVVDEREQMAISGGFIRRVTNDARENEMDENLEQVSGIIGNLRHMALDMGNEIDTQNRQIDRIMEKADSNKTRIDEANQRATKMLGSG
# METHOD SUMMARY: competition ELISA: VAMP on plate, SNAP-25-GST + syntaxin, anti-GST detection; compound at 2.5 mM
Some binders, each annotated with its measured % inhibition formation SNARE complex.
Your answer is read as %, so omit the unit and give the number.

Ac-EHFLQWM-NH2 [Ac-SEQ ID NO:30-NH2] = 71

*Q* Input Ac-DHFLDWM-NH2 [Ac-SEQ ID NO:25-NH2] , output reported % inhibition formation SNARE complex.
*A* 71

*Q* Input Ac-RHFLQWM-NH2 [Ac-SEQ ID NO:13-NH2] , output reported % inhibition formation SNARE complex.
*A* 20

*Q* Input H-EHLKQWM-NH2 [H-SEQ ID NO:1-NH2] , output reported % inhibition formation SNARE complex.
*A* 58
